system: KRAS-mutant PDC tumor spheroid with HUVEC/MSC, viability; assay: Anticancer human tumor 327498-153-R-J2-PDC patient-derived uterine carcinosarcoma cell line growth inhibition [KRAS2]; settings: second compound 3.16 µM; first compound 0.001 µM; stronger effect = lower value
recorded.endpoint: viability, T/C (%)
Response body: numeric value in %, unit text excluded.

These solved cases illustrate the format of a correct answer.
>  <molecule>
CN(C)C/C=C/C(=O)Nc1cc2c(Nc3ccc(F)c(Cl)c3)ncnc2cc1O[C@H]1CCOC1 + COc1cc2nc(C)nc(NC(C)c3cc(N)cc(C(F)(F)F)c3)c2cc1OC1CCOC1

>  <viability, T/C [%]>
57.1

$$$$
>  <molecule>
CC(C)n1nc(-c2ccc3oc(N)nc3c2)c2c(N)ncnc21 + COc1cc2nc(C)nc(NC(C)c3cc(N)cc(C(F)(F)F)c3)c2cc1OC1CCOC1

>  <viability, T/C [%]>
50.1

$$$$
>  <molecule>
CN(C)C/C=C/C(=O)Nc1cc2c(Nc3ccc(F)c(Cl)c3)ncnc2cc1O[C@H]1CCOC1 + C=CC(=O)N1CCN(c2nc(OCC3CCCN3C)nc3c2CCN(c2cccc4cccc(C)c24)C3)CC1CC#N

>  <viability, T/C [%]>
0.35

$$$$
>  <molecule>
CC(=O)Nc1cccc(-n2c(=O)n(C3CC3)c(=O)c3c(Nc4ccc(I)cc4F)n(C)c(=O)c(C)c32)c1 + C=CC(=O)N1CCN(c2nc(=O)n(-c3c(C)ccnc3C(C)C)c3nc(-c4c(O)cccc4F)c(F)cc23)C(C)C1

>  <viability, T/C [%]>
54.5

$$$$
>  <molecule>
CC(=O)Nc1cccc(-n2c(=O)n(C3CC3)c(=O)c3c(Nc4ccc(I)cc4F)n(C)c(=O)c(C)c32)c1 + C=CC(=O)N1CCN(c2nc(OCC3CCCN3C)nc3c2CCN(c2cccc4cccc(C)c24)C3)CC1CC#N

>  <viability, T/C [%]>
0.19

$$$$
>  <molecule>
CC(=O)Nc1cccc(-n2c(=O)n(C3CC3)c(=O)c3c(Nc4ccc(I)cc4F)n(C)c(=O)c(C)c32)c1 + COc1cc2nc(C)nc(NC(C)c3cc(N)cc(C(F)(F)F)c3)c2cc1OC1CCOC1

>  <viability, T/C [%]>
47.9

$$$$

Here is another molecule to look at.
Enquiry: What value of viability, T/C on KRAS-mutant PDC tumor spheroid with HUVEC/MSC, viability does Cn1ncnc1[C@H]1c2n[nH]c(=O)c3cc(F)cc(c23)N[C@@H]1c1ccc(F)cc1 + C=CC(=O)N1CCN(c2nc(OCC3CCCN3C)nc3c2CCN(c2cccc4cccc(C)c24)C3)CC1CC#N have?
Return: 0.18

###

test system: KRAS-mutant PDC tumor spheroid with HUVEC/MSC, viability; assay: Anticancer human tumor 327498-153-R-J2-PDC cell line growth inhibition [KRAS2]; conditions: second compound 3.16 µM; first compound 1 µM; stronger effect = lower value;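 note: spheroids exposed to agents for seven days before reading; 100% = DMSO vehicle wells so lower means fewer viable cells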
Recorded viability, T/C by entry
Response body: numeric value in %, unit text excluded.

>  <compound>
COc1cc(Nc2ncc3c(n2)-c2ccc(Cl)cc2C(c2c(F)cccc2OC)=NC3)ccc1C(=O)O + C=CC(=O)N1CCN(c2nc(=O)n(-c3c(C)ccnc3C(C)C)c3nc(-c4c(O)cccc4F)c(F)cc23)C(C)C1

>  <unit.string>
%

>  <viability, T/C>
11.9

$$$$
>  <compound>
O=C(c1cc(Cc2n[nH]c(=O)c3ccccc23)ccc1F)N1CCN(C(=O)C2CC2)CC1 + CNCc1ccccc1-c1csc(C(C)Nc2nc(C)nc3cc(OC)c(OC)cc23)c1

>  <unit.string>
%

>  <viability, T/C>
0.7

$$$$
>  <compound>
CC1OCC2(CCN(c3cnc(Sc4ccnc(N)c4Cl)c(N)n3)CC2)C1N (stereo not drawn) + C=CC(=O)N1CCN(c2nc(OCC3CCCN3C)nc3c2CCN(c2cccc4cccc(C)c24)C3)CC1CC#N

>  <unit.string>
%

>  <viability, T/C>
0.13

$$$$
>  <compound>
CC1COCCN1c1cc(-c2ccnn2C)c2ccnc(-c3ccn[nH]3)c2n1 (stereo not drawn) + CC1OCC2(CCN(c3cnc(Sc4ccnc(N)c4Cl)c(N)n3)CC2)C1N

>  <unit.string>
%

>  <viability, T/C>
5.2

$$$$
>  <compound>
CCNC(=O)CC1N=C(c2ccc(Cl)cc2)c2cc(OC)ccc2-n2c(C)nnc21 (stereo not drawn) + CNCc1ccccc1-c1csc(C(C)Nc2nc(C)nc3cc(OC)c(OC)cc23)c1

>  <unit.string>
%

>  <viability, T/C>
1.98

$$$$

Enquiry: Which viability, T/C reading was recorded for the compound CC(C)NCC(C(=O)N1CCN(c2ncnc3c2C(C)CC3O)CC1)c1ccc(Cl)cc1 (stereo not drawn) + C=CC(=O)N1CCN(c2nc(=O)n(-c3c(C)ccnc3C(C)C)c3nc(-c4c(O)cccc4F)c(F)cc23)C(C)C1 ?
Return: 12.2

Enquiry: Try CC(C)NCC(C(=O)N1CCN(c2ncnc3c2C(C)CC3O)CC1)c1ccc(Cl)cc1 (stereo not drawn) + CNCc1ccccc1-c1csc(C(C)Nc2nc(C)nc3cc(OC)c(OC)cc23)c1 next.
Return: 0.07

Enquiry: Try CCNC(=O)CC1N=C(c2ccc(Cl)cc2)c2cc(OC)ccc2-n2c(C)nnc21 (stereo not drawn) + COc1cc2nc(C)nc(NC(C)c3cc(N)cc(C(F)(F)F)c3)c2cc1OC1CCOC1 next.
Return: 26.5

Enquiry: Try CCN1CCN(Cc2ccc(Nc3ncc(F)c(-c4cc(F)c5nc(C)n(C(C)C)c5c4)n3)nc2)CC1 + C=CC(=O)N1CCN(c2nc(OCC3CCCN3C)nc3c2CCN(c2cccc4cccc(C)c24)C3)CC1CC#N next.
Return: 0.24

Enquiry: Try Cn1nccc1Nc1nccc(-c2cc3c(s2)C(C)(C)N(CCN2CCOCC2)C3=O)n1 + C=CC(=O)N1CCN(c2nc(=O)n(-c3c(C)ccnc3C(C)C)c3nc(-c4c(O)cccc4F)c(F)cc23)C(C)C1 next.
Return: 49.6

Enquiry: Try Cn1nccc1Nc1nccc(-c2cc3c(s2)C(C)(C)N(CCN2CCOCC2)C3=O)n1 + CNCc1ccccc1-c1csc(C(C)Nc2nc(C)nc3cc(OC)c(OC)cc23)c1 next.
Return: 2.37

Enquiry: Try COc1cc(Nc2ncc3c(n2)-c2ccc(Cl)cc2C(c2c(F)cccc2OC)=NC3)ccc1C(=O)O + CC1OCC2(CCN(c3cnc(Sc4ccnc(N)c4Cl)c(N)n3)CC2)C1N next.
Return: 5.95

Enquiry: Try CC(C)NCC(C(=O)N1CCN(c2ncnc3c2C(C)CC3O)CC1)c1ccc(Cl)cc1 (stereo not drawn) + CC1OCC2(CCN(c3cnc(Sc4ccnc(N)c4Cl)c(N)n3)CC2)C1N next.
Return: 6.16
